- target-or-test-system: CDK7/cyclinH/MAT1 trimeric complex (Homo sapiens (Human), UniProt P50613)
- Sequence (P50613 whole entry): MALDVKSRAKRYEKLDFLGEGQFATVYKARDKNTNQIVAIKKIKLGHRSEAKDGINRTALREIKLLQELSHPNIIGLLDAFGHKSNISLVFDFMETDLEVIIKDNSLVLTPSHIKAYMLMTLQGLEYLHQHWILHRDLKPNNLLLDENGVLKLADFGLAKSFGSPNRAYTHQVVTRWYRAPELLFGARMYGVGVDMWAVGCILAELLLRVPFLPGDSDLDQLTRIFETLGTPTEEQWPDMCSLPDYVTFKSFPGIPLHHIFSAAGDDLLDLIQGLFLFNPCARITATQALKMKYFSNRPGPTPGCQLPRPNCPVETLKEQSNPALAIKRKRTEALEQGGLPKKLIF
- Sequence (P51946 whole entry partner): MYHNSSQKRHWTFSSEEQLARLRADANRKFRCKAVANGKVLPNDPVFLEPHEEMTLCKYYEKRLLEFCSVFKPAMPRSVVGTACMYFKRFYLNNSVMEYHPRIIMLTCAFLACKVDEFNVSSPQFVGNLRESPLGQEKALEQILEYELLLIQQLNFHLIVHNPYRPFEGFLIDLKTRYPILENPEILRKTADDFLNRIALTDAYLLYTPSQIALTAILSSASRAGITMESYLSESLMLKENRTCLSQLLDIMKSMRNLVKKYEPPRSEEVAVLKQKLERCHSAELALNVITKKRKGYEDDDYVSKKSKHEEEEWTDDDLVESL
- Sequence (P51948 whole entry partner): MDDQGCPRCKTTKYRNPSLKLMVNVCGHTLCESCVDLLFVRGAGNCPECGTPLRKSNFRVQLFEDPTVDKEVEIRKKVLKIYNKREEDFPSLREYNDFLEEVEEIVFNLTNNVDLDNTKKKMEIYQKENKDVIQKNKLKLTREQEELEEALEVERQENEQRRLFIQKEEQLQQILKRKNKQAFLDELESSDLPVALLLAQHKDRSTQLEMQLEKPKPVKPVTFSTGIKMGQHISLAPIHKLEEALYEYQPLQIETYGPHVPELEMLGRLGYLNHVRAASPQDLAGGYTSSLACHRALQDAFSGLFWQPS
- test-details: In vitro CDK7 assay, potency of irreversible covalent inhibitors (kinact/KI)
- condition-context: CDK7 (KI(μM)), Table B
property: Ki (µM)

(P) C=CC(=O)N1CC(N2CC[C@@H](c3ccc4c(c3)Nc3ncnc(N5CCOCC5)c3CO4)C2)C1
(Q) C=CC(=O)N1CC(N2CCCC(c3ccc4c(c3)Nc3ncnc(N5CCOCC5)c3CO4)C2)C1 (stereo not shown)
(R) C=CC(=O)N1CC[C@H](N2CCC(c3ccc4c(c3)Nc3ncnc(N5CCOCC5)c3CO4)CC2)C1
(S) C=CC(=O)N1CC(N2CCC(c3ccc4c(c3)Nc3ncnc(N5CCOCC5)c3CO4)CC2C)C1 (stereo not shown)
Kindly provide a descending ordering of the above compounds based on their Ki. Labels, ranked as asked.
Q, R, P, S
(Q: 2.05 µM, R: 0.595 µM, P: 0.38 µM, S: 0.258 µM)

* * *

A collection of molecules and their measured IC50
- System: RNA polymerase II Serine 5 phosphorylation in A549 cells overexpressing CDK7 mutant (C312S)
- test-details: Imaging-based cellular RNA PolII Ser5 phosphorylation assay in A549 cells overexpressing CDK7-mutant (C312S)
- Format: cell-based, human
- condition-context: Homo sapiens, A549, A549 cells overexpressing CDK7 mutant (C312S); read-out: CDK7_ A549 mutant hCDK7(pIC50) (converted)

Here are 2 molecules together with their reported answers.
| molecule | test-result |
| --- | --- |
| C=CC(=O)N1CC[C@H](N2CC(c3cc(F)c4c(c3)Nc3ncnc(N5CCOCC5)c3CO4)C2)C1 (single isomer, unassigned) | > 10 µM |
| C=CC(=O)N1CC[C@H](N2CCC(c3cc(C)c4c(c3)Nc3ncnc(N5CCS(=O)(=O)CC5)c3CO4)CC2)C1 (single isomer, unassigned) | > 10 µM |

Here's the next entry for you.
Memo: C=CC(=O)N1CCC(N2CC(c3cc(C#N)c4c(c3)Nc3ncnc(-c5cnn(C)c5)c3CO4)C2)CC1 , reported IC50: > 10 µM

* * *

What follows is a record of IC50 for RNA polymerase II Serine 5 phosphorylation (CDK7) in A549 cells.
property: IC50 (nM)

Here are 3 compounds together with their reported answers.
| compound | target-or-test-system | IC50, nM |
| --- | --- | --- |
| C=CC(=O)N1CCC(N2CC(c3cc4c(c(C(F)(F)F)c3)OCc3c(ncnc3N3CCOCC3)N4)C2)CC1 | RNA polymerase II Serine 5 phosphorylation (CDK7) in A549 cells | 427 |
| CCC#CC(=O)N1CC[C@H](N2CC(c3cc(C)c4c(c3)Nc3ncnc(N5CCS(=O)(=O)CC5)c3[C@@H](C)O4)C2)C1 (single isomer, unassigned) | RNA polymerase II Serine 5 phosphorylation (CDK7) in A549 cells | 132 |
| C=CC(=O)N1CC(N2C3CCC2CC(c2ccc4c(c2)Nc2ncnc(N5CCOCC5)c2CO4)C3)C1 (stereo not drawn) | RNA polymerase II Serine 5 phosphorylation (CDK7) in A549 cells | 437 |

(a) C=CC(=O)N1CC(N2CCC(c3cc(C#N)c4c(c3)Nc3ncnc(N5CCOCC5)c3CO4)CC2)C1
(b) C=CC(=O)N1CC(N2CCC(c3cc(C)c4c(c3)Nc3ncnc(N5CCS(=O)(=O)CC5)c3[C@@H](C)O4)CC2)C1 (single isomer, unassigned)
(c) Cc1cc(C2CCN(C3(C)CN(C(=O)C#CCN(C)C)C3)CC2)cc2c1O[C@H](C)c1c(ncnc1N1CCS(=O)(=O)CC1)N2
Please list these in order of increasing IC50. Thank you! Labels, ranked as asked.
c, b, a
(c: 41.7 nM, b: 112 nM, a: 245 nM)

* * *

- target-or-test-system: CDK7/cyclinH/MAT1 trimeric complex (Homo sapiens (Human), UniProt P50613)
- test-details: In vitro CDK7 assay, potency of irreversible covalent inhibitors (kinact/KI)
- condition-context: read-out: CDK7 (20 nM enz.) (kinact/ KI, M^−1*s^−1), 20 nM enz.
property: kinact/KI (M⁻¹ s⁻¹)

Here are 4 compounds together with their reported answers.
| compound | unit-symbol | kinact/KI |
| --- | --- | --- |
| C=CC(=O)N1CC[C@H](N2CC(c3cc4c(c(C)n3)OCc3c(ncnc3N3CCS(=O)(=O)CC3)N4)C2)C1 (single isomer, unassigned) | M⁻¹ s⁻¹ | 229 |
| C=CC(=O)N1CC[C@@H](N2CC(c3cc(C)c4c(c3)Nc3ncnc(N5CCS(=O)(=O)CC5)c3[C@H](C)O4)C2)C1 (single isomer, unassigned) | M⁻¹ s⁻¹ | 150 |
| C=CC(=O)N1CCC(N2CC(c3cc4c(c(C(F)(F)F)c3)OCc3c(ncnc3N3CCOCC3)N4)C2)CC1 | M⁻¹ s⁻¹ | 203 |
| C=CC(=O)N1CCC(N2CC(c3cc(Cl)c4c(c3)Nc3ncnc(C5CCOCC5)c3CO4)C2)CC1 | M⁻¹ s⁻¹ | 150 |

(a) C=CC(=O)N1CCC(N2CC(c3cc(C)c4c(c3)Nc3ncnc(N5CCS(=O)(=O)CC5)c3CO4)C2)CC1
(b) C=CC(=O)N1CC(N2CCN(c3cc4c(cn3)OCc3c(ncnc3N3CCOCC3)N4)CC2)C1
Between item a and item b , which reported kinact/KI is smaller? The response must carry the label of the picked entry.
b

* * *

- Tested on: RNA polymerase II Serine 5 phosphorylation in A549 cells overexpressing CDK7 mutant (C312S)
- test-details: Imaging-based cellular RNA PolII Ser5 phosphorylation assay in A549 cells overexpressing CDK7-mutant (C312S)
- Type: cell-based, human
- condition-context: A549 cells overexpressing CDK7 mutant (C312S)
A collection of compounds and their measured CDK7_ A549 mutant hCDK7(pIC50)

Here are 2 compounds together with their reported answers.
| compound | CDK7_ A549 mutant hCDK7(pIC50) |
| --- | --- |
| C=CC(=O)N1CC(N2CCC(c3cc4c(cn3)O[C@H](C)c3c(ncnc3N3CCOCC3)N4)CC2)C1 (single isomer, unassigned) [compound 60] | <5 |
| CC#CC(=O)N1CC[C@@H](N2CC(c3cc(C)c4c(c3)Nc3ncnc(N5CCS(=O)(=O)CC5)c3[C@H](C)O4)C2)C1 (single isomer, unassigned) [compound 131] | <5 |

Memo: CC#CC(=O)N1CC(N2C3CCC2CC(c2cc(C)c4c(c2)Nc2ncnc(N5CCS(=O)(=O)CC5)c2[C@@H](C)O4)C3)C1 (mixture of isomers) [compound 183] , reported CDK7_ A549 mutant hCDK7(pIC50): <5

Memo: CC#CC(=O)N1CCC(N2CC(c3cc(C)c4c(c3)Nc3ncnc(N5CCS(=O)(=O)CC5)c3[C@H](C)O4)C2)CC1 (single isomer, unassigned) [compound 125] , reported CDK7_ A549 mutant hCDK7(pIC50): 5.26

Memo: C=CC(=O)N1CC[C@@H](N2CC(c3cc(C)c4c(c3)Nc3ncnc(N5CCS(=O)(=O)CC5)c3[C@@H](C)O4)C2)C1 (single isomer, unassigned) [compound 122] , reported CDK7_ A549 mutant hCDK7(pIC50): <5

* * *

A collection of compounds and their measured IC50
- System: RNA polymerase II Serine 5 phosphorylation in A549 cells overexpressing CDK7 mutant (C312S)
- test-details: Imaging-based cellular RNA PolII Ser5 phosphorylation assay in A549 cells overexpressing CDK7-mutant (C312S)
- Assay type: cell-based, human
- condition-context: Homo sapiens, A549, A549 cells overexpressing CDK7 mutant (C312S); read-out: CDK7_ A549 mutant hCDK7(pIC50) (converted)

| compound | IC50 |
| --- | --- |
| CC#CC(=O)N1CC[C@](C)(N2CCC(c3cc(C)c4c(c3)Nc3ncnc(N5CCS(=O)(=O)CC5)c3[C@@H](C)O4)CC2)C1 (single isomer, unassigned) | 4.37 µM |
| CC#CC(=O)N1CCC(N2CCN(c3cc(C)c4c(c3)Nc3ncnc(N5CCS(=O)(=O)CC5)c3CO4)CC2)CC1 | > 10 µM |

Memo: C=CC(=O)N1CCC(N2CC[C@H](c3cc(C)c4c(c3)Nc3ncnc(N5CCOCC5)c3CO4)C2)CC1 , reported IC50: > 10 µM

Memo: C=CC(=O)N1CC(N2CC[C@H](c3cc4c(c(C)n3)OCc3c(ncnc3N3CCS(=O)(=O)CC3)N4)C2)C1 , reported IC50: > 10 µM

Memo: C=CC(=O)N1CC(N2CC[C@@H](c3cc(C)c4c(c3)Nc3ncnc(N5CCOCC5)c3CO4)C2)C1 , reported IC50: > 10 µM

Memo: CC#CC(=O)N1CCOC([C@H]2C[C@@H](c3cc(C)c4c(c3)Nc3ncnc(N5CCS(=O)(=O)CC5)c3[C@@H](C)O4)C2)C1 (single isomer, unassigned) , reported IC50: > 10 µM

Memo: C=CC(=O)N1CC[C@@H](N2CCC(c3cc(C)c4c(c3)Nc3ncnc(N5CCS(=O)(=O)CC5)c3CO4)CC2)C1 (single isomer, unassigned) , reported IC50: ~10 µM

Memo: C=CC(=O)N1CC(N2CCC(c3cc4c(c(C5CC5)c3)OCc3c(ncnc3N3CCOCC3)N4)CC2)C1 , reported IC50: > 10 µM

Memo: C=CC(=O)N1CC(N2CC[C@H](c3ccc4c(c3)Nc3ncnc(N5CCOCC5)c3CO4)C2)C1 (single isomer, unassigned) , reported IC50: > 10 µM

Memo: CC#CC(=O)N1CCC(N2CCC(c3cc(C)c4c(c3)Nc3ncnc(N5CCS(=O)(=O)CC5)c3CO4)CC2)C1 (stereo not shown) , reported IC50: ~8.32 µM

Memo: C=CC(=O)N1CCC(N2CC(c3cc(C)c4c(c3)Nc3ncnc(N5CCS(=O)(=O)CC5)c3CO4)C2)C1 (stereo not shown) , reported IC50: > 10 µM

Memo: C#Cc1cc(C2CN([C@H]3CCN(C(=O)C=C)C3)C2)cc2c1O[C@H](C)c1c(ncnc1N1CCS(=O)(=O)CC1)N2 , reported IC50: > 10 µM

Memo: Cc1cc(C2CCN(C3(C)CN(C(=O)C#CCN(C)C)C3)CC2)cc2c1O[C@H](C)c1c(ncnc1N1CCS(=O)(=O)CC1)N2 , reported IC50: 2.34 µM

Data provenance: patent US20240109912A1
